- System: HeLa Kyoto;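 also: synchronized HeLa Kyoto cells, proteins quantified by TMT10plex mass spectrometry, three biological replicates, mitosis taken 0.5 h after nocodazole release, G1/S directly after double thymidine block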
- measurement notes: thermal stability score vs G1/S (z-score of summed log2 fold changes over temperatures); higher = more thermally stable than in G1/S
- protocol conditions: cell cycle stage: early G1 (4.5 h after nocodazole release)
reported property: thermal stability score

MTQQPLRGVTSLRFNQDQSCFCCAMETGVRIYNVEPLMEKGHLDHEQVGSMGLVEMLHRSNLLALVGGGSSPKFSEISVLIWDDAREGKDSKEKLVLEFTFTKPVLSVRMRHDKIVIVLKNRIYVYSFPDNPRKLFEFDTRDNPKGLCDLCPSLEKQLLVFPGHKCGSLQLVDLASTKPGTSSAPFTINAHQSDIACVSLNQPGTVVASASQKGTLIRLFDTQSKEKLVELRRGTDPATLYCINFSHDSSFLCASSDKGTVHIFALKDTRLNRRSALARVGKVGPMIGQYVDSQWSLASFTVPAESACICAFGRNTSKNVNSVIAICVDGTFHKYVFTPDGNCNREAFDVYLDICDDDDF [WDR45]    -0.724
MFRFMRDVEPEDPMFLMDPFAIHRQHMSRMLSGGFGYSPFLSITDGNMPGTRPASRRMQQAGAVSPFGMLGMSGGFMDMFGMMNDMIGNMEHMTAGGNCQTFSSSTVISYSNTGDGAPKVYQETSEMRSAPGGIRETRRTVRDSDSGLEQMSIGHHIRDRAHILQRSRNHRTGDQEERQDYINLDESEAAAFDDEWRRETSRFRQQRPLEFRRLESSGAGGRRAEGPPRLAIQGPEDSPSRQSRRYDW [MLF2]    1.43
MDVNIAPLRAWDDFFPGSDRFARPDFRDISKWNNRVVSNLLYYQTNYLVVAAMMISIVGFLSPFNMILGGIVVVLVFTGFVWAAHNKDVLRRMKKRYPTTFVMVVMLASYFLISMFGGVMVFVFGITFPLLLMFIHASLRLRNLKNKLENKMEGIGLKRTPMGIVLDALEQQEEGINRLTDYISKVKE [ARL6IP5]    0.94
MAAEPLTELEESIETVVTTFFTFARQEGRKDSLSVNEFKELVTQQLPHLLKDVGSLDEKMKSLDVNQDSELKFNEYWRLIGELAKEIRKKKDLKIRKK [S100A13]    -6.56
